Test system: COLO 205 colon
Test: NCI-60 one-dose screen, 48 h
Conditions: 10 µM unless noted
About 83,000 compounds went through this panel and 20% of them were active in at least one assay; those are over-represented in the sample as a whole. Activity calls are given as the source filed them. Rule for the calls: active = growth percent below 10; inactive = the rest.
API: response.call in class 1 (active), class 0 (inactive)

Look over these answered cases.
molecule=Oc1cc(/C=C/c2nc(N3CCOCC3)c3cc(Cl)c(Cl)cc3n2)cc(O)c1O classlabel="class 0"
molecule=COC(=O)CCCCCn1c2ccccc2c2c3c(c4c5ccccc5[nH]c4c21)C(=O)N(O)C3=O classlabel="class 0"

Recorded test outcome, item `C/C(=N\Nc1cc(C)c2cc(C)ccc2n1)c1ccccn1`
class 1

So what was the verdict on `Nc1c(C(=O)Nc2c(Cl)cccc2Cl)sc2nc3c(cc12)C(=O)CCC3` in this test?
class 1

// outcome(item) with item = `CC1(C)C=CC[C@]2(C)[C@H]3CC[C@@H]4[C@H]5[C@H](C(=O)/C=C/c6cccnc6)CC[C@]5(CO)CC[C@@]4(C)[C@]3(C)CC[C@@H]12`
class 1

Call for entry `CN1CCN(CC#CCn2c3c(c4ccccc42)C[C@]2(C)[C@H]4CC[C@@H]5[C@H]6[C@H]7OC(=O)[C@@]6(CCC7(C)C)CC[C@@]5(C)[C@]4(C)CC[C@H]2C3(C)C)CC1` :
class 0

Hi, sorry to bother you, what did the test record for `COc1ccc(NC(=O)c2ccc3c(c2)nc(-c2cc4ccccc4[nH]c2=O)n3-c2cc(C(C)(C)C)[nH]n2)cc1` ?
class 0

Tell me the recorded outcome of this test for `CC1(C)[C@@H](O)CC[C@]2(C)[C@H]3CC[C@@H]4[C@H]5[C@H](C(=O)/C=C/c6ccc(C(F)(F)F)cc6)CC[C@]5(CO)CC[C@@]4(C)[C@]3(C)CC[C@@H]12` .
class 0

Would you mind telling me which call this test gave `CC1(C)C(=O)/C(=C\c2ccccn2)C[C@]2(C)[C@H]3CC[C@@H]4[C@@H](C(=O)/C=C/c5ccccn5)CC[C@@]4(C)[C@]3(C)CC[C@@H]12` ?
class 1

Tell me the recorded outcome of this test for `OCC(CO)(CCl)CCl` .
class 0

What outcome does the record of this test show for `Cc1cc(N=O)cc(C(C)(C)C)c1O` ?
class 0

What did this assay record as the result for `c1cc(N2CCCC2)c2nc(-c3[nH]ncc3Nc3ncnc4[nH]ccc34)[nH]c2c1` ?
class 1

Test call for this molecule, please: `O=C1c2cccc3cccc(c23)C(=O)N1CC#Cc1ccc2c3c(cccc13)C(=O)N(CCN1CCNCC1)C2=O`
class 0

Called result for `O=c1[nH]c(=S)[nH]c2nc[nH]c12`
class 0

Identify the outcome logged in this assay for the molecule shown: `Cc1cc(Cl)nc(N(CCCNc2ccnc3cc(Cl)ccc23)Cc2ccco2)n1`
class 1

All values here come from PubChem BioAssay (NCI).
